Hey, just so you know, these numbers are from PubChem BioAssay AID624254.

# test.details: Quorum luxo inducers, light production, v cholerae bh1651 luxod47e, confirmatory dose response (AID 624254)
# experimental.parameters: V. cholerae BH1651 luxOD47E, luciferase light induction, 6 h; at 50 µM (top of the series)
Active and inactive are the calls of the source. How the calls were made is not given here.
endpoint: activation (light increase)

| compound | activation (light increase) |
| --- | --- |
| Cc1cccc(OCC(=O)N(C)CCc2ccccn2)c1 | inactive |
| COc1ccc(OCC(=O)Nc2ccccc2OC)cc1 | inactive |
| COc1cc2c(c(OC)c1OC)C(c1ccc(C)cc1)CC(=O)O2 (stereo unspecified) | inactive |
| COC(=O)c1[nH]c2ccc(C)cc2c1NC(=O)Nc1ccc(OC)cc1 | inactive |
| C=CCn1c(=O)c(C(=O)NC(C)c2ccccc2)c(O)c2ccccc21 (stereo unspecified) | inactive |

Entry Cc1ccc(OCCNC(=O)c2ccc(C)o2)cc1 — recorded activation (light increase) = inactive

Entry COc1ccc(C(=O)O)cc1S(=O)(=O)Nc1cccc(C(F)(F)F)c1 — recorded activation (light increase) = inactive

Entry Cc1ncc(S(=O)(=O)c2ccccc2)c(-c2ccc(Cl)cc2Cl)n1 — recorded activation (light increase) = inactive

Entry COc1ccc(S(=O)(=O)Nc2cccc(S(=O)(=O)N3CCCC3)c2)cc1OC — recorded activation (light increase) = inactive

Entry COc1cc(OC)c(OC)cc1CNC(C)C(O)c1ccccc1 (stereo unspecified) — recorded activation (light increase) = inactive

Entry O=C(c1cc(-c2cccs2)nn1-c1ccccc1)N1CCN(S(=O)(=O)c2ccccc2)CC1 — recorded activation (light increase) = inactive
